Molecular target: Nrf2-Keap1 complex (Homo sapiens, UniProt Q14145)
Sequence (Q14145 whole entry, one chain of several): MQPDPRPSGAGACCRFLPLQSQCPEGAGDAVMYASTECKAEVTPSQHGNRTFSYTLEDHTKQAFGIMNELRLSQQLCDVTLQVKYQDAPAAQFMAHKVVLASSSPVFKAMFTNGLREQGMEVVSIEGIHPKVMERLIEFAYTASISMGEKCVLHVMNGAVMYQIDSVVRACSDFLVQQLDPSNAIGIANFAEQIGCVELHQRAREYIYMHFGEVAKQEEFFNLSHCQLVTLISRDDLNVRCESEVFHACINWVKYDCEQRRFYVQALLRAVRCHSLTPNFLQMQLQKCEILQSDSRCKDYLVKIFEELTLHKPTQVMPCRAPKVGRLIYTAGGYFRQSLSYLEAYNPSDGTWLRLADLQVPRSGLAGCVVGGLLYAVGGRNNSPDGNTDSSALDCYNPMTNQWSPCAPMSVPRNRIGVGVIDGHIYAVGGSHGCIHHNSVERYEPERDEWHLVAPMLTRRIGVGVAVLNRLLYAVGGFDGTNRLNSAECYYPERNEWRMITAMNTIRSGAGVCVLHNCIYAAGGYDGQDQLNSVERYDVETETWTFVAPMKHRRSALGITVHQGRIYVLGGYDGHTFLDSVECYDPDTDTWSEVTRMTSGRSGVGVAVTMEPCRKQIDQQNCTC
Assay: cell-based
Format: cell-based
Conditions: Table 2; 200 nL compound; screen run at 16 and 32 μM, 3 hr
Criterion: 200 nL (luminescence) meeting or surpassing 1000. Met: Y. Not met: N.

API: above_or_equal(metric=200 nL (luminescence), cutoff=1000) for item CC1(C)C(=O)C=C[C@]2(C)[C@H]3CC[C@@]4(C)[C@H](c5ccoc5)OC(=O)[C@H]5O[C@]54[C@]3(C)C(=O)C[C@@H]12
N

API: above_or_equal(metric=200 nL (luminescence), cutoff=1000) for item COc1ccc2c(c1)OCC(Cc1ccc(OC(C)=O)c(OC)c1)C2=O (stereo not drawn)
Y

API: above_or_equal(metric=200 nL (luminescence), cutoff=1000) for item CC(=O)C(=Cc1ccccc1)CC(=O)O
Y

API: above_or_equal(metric=200 nL (luminescence), cutoff=1000) for item C=C1C[C@@H]2[C@H](CC[C@]3(C)C(=O)CC[C@@H]23)[C@@]2(C)C=CC(=O)C=C12 [EXEMESTANE, reference compound]
Y

API: above_or_equal(metric=200 nL (luminescence), cutoff=1000) for item COc1ccc2c(c1)OC/C(=C/c1ccc(OC)c(OC)c1)C2=O
Y

More entries:
API: above_or_equal(metric=200 nL (luminescence), cutoff=1000) for item C[C@]12CCC(=O)C=C1CCc1ccc(O)cc12
N

API: above_or_equal(metric=200 nL (luminescence), cutoff=1000) for item CCCCCCCCCCCCCCCc1ccco1
Y

API: above_or_equal(metric=200 nL (luminescence), cutoff=1000) for item CC(C)c1cc2c(c(O)c1O)[C@@]1(C(=O)O)CCCC(C)(C)[C@@H]1CC2
Y

###

Molecular target: Nrf2-Keap1 complex (Homo sapiens, UniProt Q14145)
Test: cell-based
Assay type: cell-based
Conditions: Table 2; 100 nL compound; screen run at 16 and 32 μM, 3 hr
Note to self: 100 nL (luminescence) under 2000 means T, ties and anything higher get F.

Solved cases below.
Given CC1=C(/C=C/C(C)=C/C=C/C(C)=C\C(=O)O)C(C)(C)CCC1 [ISOTRETINON, reference compound] , is recorded 100 nL (luminescence) strictly lower than 2000?
T

Given C=C[C@@]1(C)CC(=O)[C@]2(O)[C@@]3(C)[C@@H](O)CCC(C)(C)[C@@H]3[C@H](O)[C@H](OC(C)=O)[C@@]2(C)O1 [COLFORSIN, reference compound] , is recorded 100 nL (luminescence) strictly lower than 2000?
F

Given COc1cc2c(c(OC)c1OC)-c1ccc(=O)c(O)cc1[C@@H](NC(C)=O)CC2 , is recorded 100 nL (luminescence) strictly lower than 2000?
T

Given O=c1c(O)cccc2cc(O)c(O)c(O)c12 , is recorded 100 nL (luminescence) strictly lower than 2000?
F

Given CC(=O)OC1CCC23CC1(C)CCC2C(C)(C)CC3OC(C)=O (stereo not shown) [CLOVANEDIOLDIACETATE] , is recorded 100 nL (luminescence) strictly lower than 2000?
T

Given COC(=O)c1cc(OC)c(=O)c2c(OC)c(OC)ccc2c1 , is recorded 100 nL (luminescence) strictly lower than 2000?
F

Given CC(C)c1cccc(=O)c(O)c1 , is recorded 100 nL (luminescence) strictly lower than 2000?
T

Given CC(C)=CCc1c2c(c(O)c3c(=O)c(O)c(-c4ccccc4)oc13)C=CC(C)(C)O2 , is recorded 100 nL (luminescence) strictly lower than 2000?
F

More entries:
Given O=C(/C=C/c1ccc(O)cc1)c1ccccc1O [2′,4-DIHYDROXYCHALCONE] , is recorded 100 nL (luminescence) strictly lower than 2000?
F

Given COc1cc(O)c(C(=O)/C=C/c2ccc(OC)c(O)c2)c(OC)c1 , is recorded 100 nL (luminescence) strictly lower than 2000?
F

Given CC(C)c1ccc2c(c1O)CC[C@H]1C3=C(CC[C@]21C)C(=O)OC3 [TRIPTOPHENOLIDE] , is recorded 100 nL (luminescence) strictly lower than 2000?
T

Given CC(=O)Oc1cc(-c2coc3cc(OC(C)=O)c(OC(C)=O)c(OC(C)=O)c3c2=O)cc(OC(C)=O)c1OC(C)=O [IRIGINOLHEXAACEATATE] , is recorded 100 nL (luminescence) strictly lower than 2000?
T

Given COc1c(O)cc2c(-c3ccccc3)cc(=O)oc2c1OC , is recorded 100 nL (luminescence) strictly lower than 2000?
T

Given C[C@@H]1C[C@H]2[C@@H]3CCC4=CC(=O)C=C[C@]4(C)[C@@]3(Cl)[C@@H](O)C[C@]2(C)[C@@]1(OC(=O)c1ccco1)C(=O)CCl [MOMETASONEFUROATE, reference compound] , is recorded 100 nL (luminescence) strictly lower than 2000?
T

Given O=c1ccn([C@@H]2O[C@H](COP(=O)([O-])OP(=O)([O-])OP(=O)([O-])O)[C@@H](O)[C@H]2O)c(=O)[nH]1.[Na+].[Na+].[Na+] [URIDINETRIPHOSPHATETRISODIUM] , is recorded 100 nL (luminescence) strictly lower than 2000?
T

Given CC1(C)C(=O)C=C[C@]2(C)[C@H]3CC[C@@]4(C)[C@H](c5ccoc5)OC(=O)[C@H]5O[C@]54[C@]3(C)[C@H](O)C[C@@H]12 , is recorded 100 nL (luminescence) strictly lower than 2000?
T

###

Target: Nrf2-Keap1 complex (Homo sapiens, UniProt Q14145)
Assay: cell-based
Type: cell-based
Settings: 3 h, read-out: Activation 100 nL
Structures can show the parent of a compound that is named as a salt.
Criterion: activation at 16 µM meeting or surpassing 50%. Met: Condition met. Not met: Condition not met.

Solved cases below.
API: above_or_equal(metric=activation at 16 µM, cutoff=50%) for item Nc1nc(N)c2nc(-c3ccccc3)c(N)nc2n1 [reference compound]
Condition met

API: above_or_equal(metric=activation at 16 µM, cutoff=50%) for item O=C(NC(=O)c1c(F)cccc1F)Nc1cc(Cl)c(OC(F)(F)C(F)C(F)(F)F)cc1Cl (stereo not shown)
Condition not met

API: above_or_equal(metric=activation at 16 µM, cutoff=50%) for item COc1cc(C)c2c(c1C=O)Oc1c(c(C)c(O)c3c1C(O)OC3=O)OC2=O (stereo not shown) [[…]]
Condition met

API: above_or_equal(metric=activation at 16 µM, cutoff=50%) for item COc1cc([C@@H]2c3cc4c(cc3[C@@H](O[C@@H]3O[C@@H]5CO[C@@H](c6cccs6)O[C@H]5[C@H](O)[C@H]3O)[C@H]3COC(=O)[C@H]23)OCO4)cc(OC)c1O [TENIPOSIDE, reference compound]
Condition met

API: above_or_equal(metric=activation at 16 µM, cutoff=50%) for item COc1cc([C@@H]2c3cc4c(cc3[C@H](O)[C@H]3COC(=O)[C@@H]23)OCO4)cc(OC)c1OC
Condition not met

More entries:
API: above_or_equal(metric=activation at 16 µM, cutoff=50%) for item CN(C)c1ccc(O)c2c1C[C@H]1C[C@H]3[C@H](N(C)C)C(O)=C(C(N)=O)C(=O)[C@@]3(O)C(O)=C1C2=O [MINOCYCLINEHYDROCHLORIDE, reference compound]
Condition met

API: above_or_equal(metric=activation at 16 µM, cutoff=50%) for item CC(=O)Oc1cc(-c2coc3cc(OC(C)=O)c(OC(C)=O)c(OC(C)=O)c3c2=O)cc(OC(C)=O)c1OC(C)=O [IRIGINOLHEXAACEATATE]
Condition met

API: above_or_equal(metric=activation at 16 µM, cutoff=50%) for item Cc1cc(O)ccc1Cl
Condition not met

API: above_or_equal(metric=activation at 16 µM, cutoff=50%) for item C=C(CC)C(=O)c1ccc(OCC(=O)O)c(Cl)c1Cl [reference compound]
Condition met

API: above_or_equal(metric=activation at 16 µM, cutoff=50%) for item CCC(C)C(=O)OC1[C@@H]2CC3=C4CC(=O)O[C@@H](c5ccoc5)[C@]4(C)CCC3[C@@](C)(C2=O)[C@@H](CC(=O)OC)C1(C)C (stereo partly shown)
Condition met

API: above_or_equal(metric=activation at 16 µM, cutoff=50%) for item O=C1C(O)=C(O)C(=O)C(O)=C1O
Condition not met

API: above_or_equal(metric=activation at 16 µM, cutoff=50%) for item COc1cc(O)c(C(=O)c2ccccc2)cc1O
Condition met

###

Biological target: Nrf2-Keap1 complex (Homo sapiens)
Assay: cell-based
Assay type: cell-based
Settings: Table 2; 100 nL compound; screen run at 16 and 32 μM, 3 hr
Counter-ions that a name gives are not always drawn.
Criterion: 100 nL (luminescence) meeting or surpassing 1000. Met: 1 (yes). Not met: 0 (no).

Solved cases below.
API: above_or_equal(metric=100 nL (luminescence), cutoff=1000) for item O=C1OC(=O)[C@H]2[C@@H]1[C@@H]1CC[C@H]2O1
0 (no)

API: above_or_equal(metric=100 nL (luminescence), cutoff=1000) for item O=c1c(O)c(-c2ccc(O)c(O)c2)oc2cc(O)ccc12
1 (yes)

API: above_or_equal(metric=100 nL (luminescence), cutoff=1000) for item O=c1c(O)c(-c2ccccc2)oc2cccc(O)c12 [3,5-DIHYDROXYFLAVONE]
1 (yes)

More entries:
API: above_or_equal(metric=100 nL (luminescence), cutoff=1000) for item CN1CCc2cccc3c2[C@H]1Cc1ccc(O)c(O)c1-3 [APOMORPHINEHYDROCHLORIDE, reference compound]
0 (no)

API: above_or_equal(metric=100 nL (luminescence), cutoff=1000) for item O=c1c(-c2ccccc2)coc2cc(O)cc(O)c12 [5,7-DIHYDROXYISOFLAVONE]
0 (no)
